- assay text: log P determination by reversed-phase HPLC (EEC Directive 79/831 Annex V.A8; acidic or neutral mobile phase)
- Format: physicochemical
- condition notes: HPLC, reversed-phase C18, 43° C.; acidic range a): 0.1% aqueous phosphoric acid, acetonitrile, linear gradient 10% to 90% acetonitrile
- Procedure: The log P values given in the table were determined in accordance with EEC Directive 79/831 Annex V.A8 by HPLC (High Performance Liquid Chromatography) using a reversed-phase column (C 18). Temperature: 43° C. (a) Mobile phases for the determination in the acidic range: 0.1% aqueous phosphoric acid, acetonitrile; linear gradient from 10% acetonitrile to 90% acetonitrile—the corresponding measurement results are marked a) in Table 1. […]
assay readout: logP

COc1c(C(=O)C2C(=O)CCCC2=O)ccc(Cl)c1CN(C)S(C)(=O)=O [Example 472]; logP = 2.20^a)
CCONCc1c(Cl)ccc(C(=O)C2C(=O)CCCC2=O)c1OC [Example 447]; logP = 2.20^a)
